Data provenance is paper PMC4434323.

Item-by-item account of binding signal (PBM E-score (-0.5 to 0.5))
# target entity: T07C12.11 (T07C12.11) (Caenorhabditis elegans)
# Sequence: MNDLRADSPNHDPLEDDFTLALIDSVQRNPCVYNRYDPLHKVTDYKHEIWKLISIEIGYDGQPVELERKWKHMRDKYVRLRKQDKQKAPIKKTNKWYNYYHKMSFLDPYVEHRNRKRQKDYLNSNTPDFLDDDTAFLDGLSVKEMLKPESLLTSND
endpoint: binding signal (PBM E-score (-0.5 to 0.5))

- TACGTAAA (double strand) [8-mer TACGTAAA]: 0.488
- TTACGTAA (double strand) [8-mer TTACGTAA]: 0.496
- ATACGTAA (double strand) [8-mer ATACGTAA]: 0.491
- CTTACGCA (double strand) [8-mer CTTACGCA]: 0.487
- TTGCGCAA (double strand) [8-mer TTGCGCAA]: 0.493
- ACGTAAGA (double strand) [8-mer ACGTAAGA]: 0.486
- CTTGCGCA (double strand) [8-mer CTTGCGCA]: 0.489
- CTTACGTA (double strand) [8-mer CTTACGTA]: 0.495
- AACGTAAG (double strand) [8-mer AACGTAAG]: 0.486
